Each entry below carries its reported Kd.
- TESTED_TARGET: T1, recombinant human VEGF165 (PeproTech EC Ltd.) (human, UniProt P15692-4 27-191)
- T1 construct: Amine-coupled to a CM4 sensor chip; also called hVEGF165
- T1 sequence (P15692 other isoform, or with tags, fused parts or gaps limits assumed): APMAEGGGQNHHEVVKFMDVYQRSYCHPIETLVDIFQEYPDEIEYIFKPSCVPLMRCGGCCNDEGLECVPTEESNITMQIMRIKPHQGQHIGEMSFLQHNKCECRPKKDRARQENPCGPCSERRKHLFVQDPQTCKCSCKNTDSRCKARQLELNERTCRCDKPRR
- TEST_PROTOCOL: SPR BIAcore T100, hVEGF165 amine-coupled on CM4 chip, scFv as analyte
# output: bare number, implied unit nM

Completed entries (count: 4):
| BINDER | OBSERVABLE | REPORTED |
| --- | --- | --- |
| 610-max (scFv) EIVMTQSPSTLSASVGDRVIITCQASQSISSWLSWYQQKPGKAPKLLIYQASTLASGVPSRFSGSGSGTEFTLTISSLQPDDFATYYCQNNYGFRSYGGAFGQGTKLTVLGGGGGSGGGGSGGGGSGGGGSEVQLVESGGGLVQPGGSLRLSCTASGIDFSGAYYMGWVRQAPGKGLEWVGYIDYDGDRYYASWAKGRFTISKDTSKNTVYLQMNSLRAEDTAVYYCARSDYSSGWGTDIWGQGTLVTVSS | Kd | 1.18 |
| 534-max (scFv) EIVMTQSPSTLSASVGDRVIITCQASQSINIWLSWYQQKPGKAPKLLIYKESTLASGVPSRFSGSGSGTEFTLTISSLQPDDFATYYCQNNYDSGNNGFPFGQGTKLTVLGGGGGSGGGGSGGGGSGGGGSEVQLVESGGGLVQPGGSLRLSCTASGFSLSYYYMSWVRQAPGKGLEWVGIIGPGDYTDYASWAKGRFTISKDTSKNTVYLQMNSLRAEDTAVYYCARGDDNSGWGEDIWGQGTLVTVSS | Kd | 9.21 |
| 509-min (scFv) EIVMTQSPSTLSASVGDRVIITCQASQNIRIWLSWYQQKPGKAPKLLIYKASTLESGVPSRFSGSGSGAEFTLTISSLQPDDFATYYCQNNAHYSTNGGTFGQGTKLTVLGGGGGSGGGGSGGGGSGGGGSEVQLVESGGGLVQPGGSLRLSCAASGFSLSSYYMCWVRQAPGKGLEWVSCLDYVGDTDYASWAKGRFTISRDNSKNTLYLQMNSLRAEDTAVYYCAKTDDSRGWGLNIWGQGTLVTVSS | Kd | 1.82 |
| 610-min (scFv) EIVMTQSPSTLSASVGDRVIITCQASQSISSWLSWYQQKPGKAPKLLIYQASTLASGVPSRFSGSGSGAEFTLTISSLQPDDFATYYCQNNYGFRSYGGAFGQGTKLTVLGGGGGSGGGGSGGGGSGGGGSEVQLVESGGGLVQPGGSLRLSCAASGIDFSGAYYMGWVRQAPGKGLEWVSYIDYDGDRYYASWAKGRFTISRDNSKNTLYLQMNSLRAEDTAVYYCAKSDYSSGWGTDIWGQGTLVTVSS | Kd | 10.6 |

Asked: Query: Kd; subject: 578-min (scFv) EIVMTQSPSTLSASVGDRVIITCQASEIIHSWLAWYQQKPGKAPKLLIYLASTLASGVPSRFSGSGSGAEFTLTISSLQPDDFATYYCQNVYLASTNGANFGQGTKLTVLGGGGGSGGGGSGGGGSGGGGSEVQLVESGGGLVQPGGSLRLSCAASGFSLTDYYYMTWVRQAPGKGLEWVSFIDPDDDPYYATWAKGRFTISRDNSKNTLYLQMNSLRAEDTAVYYCAKGDHNSGWGLDIWGQGTLVTVSS
Given back: 9.01

Asked: How about 567-min (scFv) EIVMTQSPSTLSASVGDRVIITCQADQSIYIWLSWYQQKPGKAPKLLIYKASTLESGVPSRFSGSGSGAEFTLTISSLQPDDFATYYCQNNAHYSTNGGTFGQGTKLTVLGGGGGSGGGGSGGGGSGGGGSEVQLVESGGGLVQPGGSLRLSCAASGFSLSDYYMCWVRQAPGKGLEWVSCLDYFGSTDDASWAKGRFTISRDNSKNTLYLQMNSLRAEDTAVYYCAKTDDSRGWGLNIWGQGTLVTVSS ?
Given back: 0.23
